Biological target: canine IL-31 (Canine_IL31) (canine)
Sequence (chain, as listed by the source limits assumed, form in doubt): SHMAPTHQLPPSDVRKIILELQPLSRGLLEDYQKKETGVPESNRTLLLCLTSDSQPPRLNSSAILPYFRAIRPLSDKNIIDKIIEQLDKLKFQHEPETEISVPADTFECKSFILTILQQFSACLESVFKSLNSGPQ
Assay: SPR (Biacore), immobilised IL-31, 1:1 fit
Category key, based on recorded Kd: bottom: < 0.2 nM; middle: ≥ 0.2 nM and < 2 nM; top: ≥ 2 nM

INSERT INTO results (binder, qualitative_label) VALUES
  ('Feline 15H05 1.1 FW1_3 (antibody, V domains shown) VH: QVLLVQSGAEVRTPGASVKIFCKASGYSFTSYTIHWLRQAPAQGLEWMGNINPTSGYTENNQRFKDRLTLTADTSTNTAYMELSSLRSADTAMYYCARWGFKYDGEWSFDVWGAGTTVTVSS VL: DIQMNQSPSSLSASLGDTITVTCRASQGISIWLSWYQQKPGKVPKLLIYKASNLHIGVPPRFSGSGSGTHFTLTITSLQPEDIATYYCLQSQTYPLTFGGGTKLEIK', 'bottom'),
  ('Feline 15H05_VH3 mouse VL (antibody, V domains shown) VH: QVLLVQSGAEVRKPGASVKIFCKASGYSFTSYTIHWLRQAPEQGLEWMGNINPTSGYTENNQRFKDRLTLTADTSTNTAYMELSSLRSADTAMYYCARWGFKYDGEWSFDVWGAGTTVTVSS VL: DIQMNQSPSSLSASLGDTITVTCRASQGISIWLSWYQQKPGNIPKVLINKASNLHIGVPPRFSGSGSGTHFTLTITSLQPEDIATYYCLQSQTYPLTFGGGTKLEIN', 'bottom'),
  ('Feline 15H05 1.2 (antibody, V domains shown) VH: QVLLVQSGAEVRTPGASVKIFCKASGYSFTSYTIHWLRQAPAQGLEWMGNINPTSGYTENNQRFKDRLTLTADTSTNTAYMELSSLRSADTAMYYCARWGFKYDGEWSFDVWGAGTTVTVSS VL: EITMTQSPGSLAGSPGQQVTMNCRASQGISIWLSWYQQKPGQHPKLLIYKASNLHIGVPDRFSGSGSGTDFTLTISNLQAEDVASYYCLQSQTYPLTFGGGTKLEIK', 'top'),
  ('Feline 15H05 1.3 (antibody, V domains shown) VH: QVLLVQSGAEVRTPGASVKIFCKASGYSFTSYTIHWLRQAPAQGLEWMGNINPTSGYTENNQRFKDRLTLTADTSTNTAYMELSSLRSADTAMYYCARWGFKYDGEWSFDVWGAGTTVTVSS VL: EVVLTQSSAFLSRTLKEKATITCRASQGISIWLSWYQQKPNQAPKLLVKKASNLHIGAPSRFSGSGSGTDFTLTISSPEPEDAATYYCLQSQTYPLTFGGGTKLGDQ', 'top'),
  ('Feline 11E12 1.1 K46Q (antibody, V domains shown) VH: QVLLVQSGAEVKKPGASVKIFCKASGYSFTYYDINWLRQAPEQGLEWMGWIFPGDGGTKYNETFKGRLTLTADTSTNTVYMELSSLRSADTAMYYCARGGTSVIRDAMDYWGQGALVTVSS VL: EIQMTQSPSSLSASPGDRVTITCRASESVDNYGISFMHWYQQKPGQVPKLLIYRASNLESGVPSRFSGSGSGTDFTLTISSLEPEDAATYYCQQSNKDPLTFGQGT', 'middle'),
  ('Feline 15H05 2.1 (antibody, V domains shown) VH: QVLLVQSGAEVRTPGASVKIFCKASGYGFTSYTIHWVRQSPAQGLEWMGNINPTSGYTENNQRFKDRLTLTADTSTNTAYMELSSLRSADTAMYYCARWGFKYDGEWSFDVWGAGTTVTVSS VL: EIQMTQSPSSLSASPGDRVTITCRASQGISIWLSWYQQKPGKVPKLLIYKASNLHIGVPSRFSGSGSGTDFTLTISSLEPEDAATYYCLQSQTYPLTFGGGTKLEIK', 'middle'),
  ('Feline 15H05_VH1 mouse VL (antibody, V domains shown) VH: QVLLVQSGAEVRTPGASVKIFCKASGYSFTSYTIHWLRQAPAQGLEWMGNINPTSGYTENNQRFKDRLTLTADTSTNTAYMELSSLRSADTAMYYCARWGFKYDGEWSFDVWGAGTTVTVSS VL: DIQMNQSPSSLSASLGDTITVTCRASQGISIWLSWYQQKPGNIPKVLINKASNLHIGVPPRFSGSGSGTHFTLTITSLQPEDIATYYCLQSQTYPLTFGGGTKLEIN', 'bottom'),
  ('Feline 15H05 3.1 (antibody, V domains shown) VH: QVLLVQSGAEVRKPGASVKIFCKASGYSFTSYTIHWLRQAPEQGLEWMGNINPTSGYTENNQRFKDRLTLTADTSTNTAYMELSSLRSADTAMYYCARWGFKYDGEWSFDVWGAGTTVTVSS VL: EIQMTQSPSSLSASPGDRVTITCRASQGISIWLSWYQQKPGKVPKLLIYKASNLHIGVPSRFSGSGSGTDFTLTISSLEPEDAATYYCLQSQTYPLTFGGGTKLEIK', 'middle'),
  ('Feline 11E12 1.1 FW2 (antibody, V domains shown) VH: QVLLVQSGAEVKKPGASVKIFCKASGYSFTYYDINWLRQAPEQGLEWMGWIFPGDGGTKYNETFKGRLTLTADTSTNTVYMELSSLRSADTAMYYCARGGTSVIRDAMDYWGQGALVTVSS VL: EIQMTQSPSSLSASPGDRVTITCRASESVDNYGISFMHWYQQKPGQPPKLLIYRASNLESGVPSRFSGSGSGTDFTLTISSLEPEDAATYYCQQSNKDPLTFGQGT', 'top');

Just for reference, patent US20190282704A1 is where these values come from.
